IC50 values for the compounds below.
target: ADP-stimulated platelets (Homo sapiens, UniProt P05106+P08514); experiment: Inhibition of 125I-fibrinogen binding to ADP-stimulated platelets; details: read-out: IC50 Platelets (Table III); mean of three separate experiments
Sequence (P08514 32-1039): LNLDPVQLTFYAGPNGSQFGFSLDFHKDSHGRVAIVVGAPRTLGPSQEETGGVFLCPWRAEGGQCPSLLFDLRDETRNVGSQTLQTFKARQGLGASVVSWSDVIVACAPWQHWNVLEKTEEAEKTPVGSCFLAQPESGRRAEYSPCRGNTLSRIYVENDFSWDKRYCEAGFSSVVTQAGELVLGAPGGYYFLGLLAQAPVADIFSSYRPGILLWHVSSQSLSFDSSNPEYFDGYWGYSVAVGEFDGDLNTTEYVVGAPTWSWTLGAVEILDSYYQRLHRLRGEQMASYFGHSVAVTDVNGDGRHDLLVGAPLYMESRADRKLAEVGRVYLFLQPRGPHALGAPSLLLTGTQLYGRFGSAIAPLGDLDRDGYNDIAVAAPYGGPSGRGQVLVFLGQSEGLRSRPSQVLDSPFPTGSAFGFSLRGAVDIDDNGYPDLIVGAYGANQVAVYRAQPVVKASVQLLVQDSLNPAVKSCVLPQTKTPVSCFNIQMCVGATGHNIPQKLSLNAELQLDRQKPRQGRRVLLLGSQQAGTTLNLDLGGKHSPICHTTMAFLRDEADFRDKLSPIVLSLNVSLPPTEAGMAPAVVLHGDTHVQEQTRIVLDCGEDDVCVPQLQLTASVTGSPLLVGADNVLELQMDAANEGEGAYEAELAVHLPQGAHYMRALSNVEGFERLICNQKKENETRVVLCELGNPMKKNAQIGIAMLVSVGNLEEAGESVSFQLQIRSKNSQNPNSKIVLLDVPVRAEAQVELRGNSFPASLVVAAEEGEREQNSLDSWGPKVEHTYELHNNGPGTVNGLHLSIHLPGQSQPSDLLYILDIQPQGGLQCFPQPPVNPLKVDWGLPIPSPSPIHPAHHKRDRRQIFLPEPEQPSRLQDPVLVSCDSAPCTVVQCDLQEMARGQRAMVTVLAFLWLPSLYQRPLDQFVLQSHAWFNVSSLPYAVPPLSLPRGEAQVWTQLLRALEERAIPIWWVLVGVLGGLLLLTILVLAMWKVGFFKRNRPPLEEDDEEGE
Sequence (P05106 27-788): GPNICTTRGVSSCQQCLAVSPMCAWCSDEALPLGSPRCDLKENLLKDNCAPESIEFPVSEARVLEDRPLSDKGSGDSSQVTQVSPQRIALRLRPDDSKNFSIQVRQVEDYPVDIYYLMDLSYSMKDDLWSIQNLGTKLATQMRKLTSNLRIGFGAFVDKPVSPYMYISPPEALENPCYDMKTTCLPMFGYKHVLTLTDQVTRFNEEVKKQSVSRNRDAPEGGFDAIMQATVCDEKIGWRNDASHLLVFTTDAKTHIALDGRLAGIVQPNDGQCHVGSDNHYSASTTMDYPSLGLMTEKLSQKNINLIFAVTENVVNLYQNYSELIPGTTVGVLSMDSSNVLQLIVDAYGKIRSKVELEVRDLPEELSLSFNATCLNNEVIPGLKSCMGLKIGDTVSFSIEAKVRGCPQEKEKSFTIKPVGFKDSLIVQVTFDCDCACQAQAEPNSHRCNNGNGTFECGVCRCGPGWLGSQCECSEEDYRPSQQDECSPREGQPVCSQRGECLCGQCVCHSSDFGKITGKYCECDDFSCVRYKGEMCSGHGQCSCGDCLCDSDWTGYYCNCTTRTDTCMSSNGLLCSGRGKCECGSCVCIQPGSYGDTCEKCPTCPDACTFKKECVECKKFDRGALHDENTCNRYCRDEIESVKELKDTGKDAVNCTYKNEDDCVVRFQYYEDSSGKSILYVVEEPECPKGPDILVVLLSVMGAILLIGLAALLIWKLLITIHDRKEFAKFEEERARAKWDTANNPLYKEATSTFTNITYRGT
Sequence (P02671 36-866 partner): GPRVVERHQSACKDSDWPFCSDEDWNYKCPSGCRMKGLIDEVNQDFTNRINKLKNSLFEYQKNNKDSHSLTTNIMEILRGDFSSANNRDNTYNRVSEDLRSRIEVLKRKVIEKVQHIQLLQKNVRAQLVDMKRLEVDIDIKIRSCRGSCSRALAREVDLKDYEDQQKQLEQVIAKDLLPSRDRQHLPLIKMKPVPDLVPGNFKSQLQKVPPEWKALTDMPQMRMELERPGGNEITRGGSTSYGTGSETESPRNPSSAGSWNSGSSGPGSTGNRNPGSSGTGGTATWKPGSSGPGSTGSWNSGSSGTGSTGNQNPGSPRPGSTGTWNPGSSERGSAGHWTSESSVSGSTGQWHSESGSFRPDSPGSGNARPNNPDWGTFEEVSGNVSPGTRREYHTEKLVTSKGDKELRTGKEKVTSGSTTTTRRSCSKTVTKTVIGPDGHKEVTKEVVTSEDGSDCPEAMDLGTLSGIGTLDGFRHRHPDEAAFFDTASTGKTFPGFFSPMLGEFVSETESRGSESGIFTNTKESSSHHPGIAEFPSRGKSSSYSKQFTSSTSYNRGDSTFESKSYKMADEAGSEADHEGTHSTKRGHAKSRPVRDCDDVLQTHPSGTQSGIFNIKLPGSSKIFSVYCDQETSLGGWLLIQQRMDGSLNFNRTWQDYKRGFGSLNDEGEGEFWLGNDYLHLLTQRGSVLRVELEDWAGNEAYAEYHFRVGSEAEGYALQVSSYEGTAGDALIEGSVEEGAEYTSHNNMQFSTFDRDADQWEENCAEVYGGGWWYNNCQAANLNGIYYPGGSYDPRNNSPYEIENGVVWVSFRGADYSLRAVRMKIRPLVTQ
Sequence (P02675 45-491 partner): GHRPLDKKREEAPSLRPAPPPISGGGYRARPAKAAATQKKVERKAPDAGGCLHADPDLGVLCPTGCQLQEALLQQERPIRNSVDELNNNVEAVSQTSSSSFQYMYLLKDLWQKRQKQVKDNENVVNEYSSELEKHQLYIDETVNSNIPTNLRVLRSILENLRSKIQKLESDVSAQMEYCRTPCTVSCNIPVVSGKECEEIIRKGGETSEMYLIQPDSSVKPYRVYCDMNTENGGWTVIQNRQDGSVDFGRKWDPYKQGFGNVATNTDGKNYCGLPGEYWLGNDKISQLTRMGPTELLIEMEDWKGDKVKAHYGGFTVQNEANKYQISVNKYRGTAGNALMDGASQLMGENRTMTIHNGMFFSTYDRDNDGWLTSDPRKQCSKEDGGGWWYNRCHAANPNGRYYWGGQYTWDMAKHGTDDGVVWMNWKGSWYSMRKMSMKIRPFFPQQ
Sequence (P02679 27-453 partner): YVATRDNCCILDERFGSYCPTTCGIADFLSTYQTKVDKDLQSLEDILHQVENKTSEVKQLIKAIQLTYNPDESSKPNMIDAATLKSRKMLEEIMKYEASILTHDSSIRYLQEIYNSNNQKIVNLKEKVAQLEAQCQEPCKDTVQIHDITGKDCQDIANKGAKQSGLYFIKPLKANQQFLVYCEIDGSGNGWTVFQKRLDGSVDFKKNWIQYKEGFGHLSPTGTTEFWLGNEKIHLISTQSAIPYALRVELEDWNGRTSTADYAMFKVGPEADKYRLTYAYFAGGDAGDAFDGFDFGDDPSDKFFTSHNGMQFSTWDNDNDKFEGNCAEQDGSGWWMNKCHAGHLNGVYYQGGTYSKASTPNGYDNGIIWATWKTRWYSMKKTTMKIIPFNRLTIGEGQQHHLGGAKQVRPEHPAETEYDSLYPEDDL
Residues, ends and D or L forms follow the SMILES beside them.

CC(C)[C@H](NC(=O)[C@H](CC(=O)O)NC(=O)CNC(=O)[C@H](C)NC(=O)[C@H](CCC(N)=O)NC(=O)[C@@H](N)Cc1c[nH]cn1)C(=O)O [HQAGDV] (H-HQAGDV-OH; N-terminus assumed); > 1 mM

Proceed to the following item.
Req: Please report the measured IC50 for CC(C)[C@H](NC(=O)[C@H](CC(=O)O)NC(=O)CNC(=O)[C@H](C)NC(=O)[C@H](CCC(N)=O)NC(=O)[C@@H](N)CCCNC(=N)N)C(=O)O [RQAGDV] (H-RQAGDV-OH; N-terminus assumed)
Resp: > 1 mM

Hello, the source for this data is paper PMC2115601, in case you need it.
